assayComment: Body and organ weights of cynomolgus monkeys (Example 45)
Assay type: in vivo
particulars: day 15; escalating dose regimen
experimentalReadout: body weights (g)
Respond with the bare value in g.

Look up body weights for this substance: ISIS 416838: MOE gapmer, nucleobases 1018 to 1042 of SEQ ID NO: 1 (Table 6) (antisense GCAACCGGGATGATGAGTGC; MOE gapmer, wing and gap sizes not given here) 2642

So what does the record say about body weights for ISIS 417002: MOE gapmer, nucleobases 1275 to 1318 of SEQ ID NO: 1 (Table 8) (antisense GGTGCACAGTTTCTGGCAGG; MOE gapmer, wing and gap sizes not given here) ? 2571

I have this substance here, ISIS 416858: MOE gapmer, nucleobases 1275 to 1318 of SEQ ID NO: 1 (Table 8) (antisense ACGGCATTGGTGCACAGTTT; MOE gapmer, wing and gap sizes not given here) , and I need its recorded body weights. 2760

Reference source for all entries: patent US20230263822A1
